assay.system: T1, monkey PTK7 protein (extracellular sequence of monkey PTK7 with C-terminal 6×His tag) (monkey)
T1 chain: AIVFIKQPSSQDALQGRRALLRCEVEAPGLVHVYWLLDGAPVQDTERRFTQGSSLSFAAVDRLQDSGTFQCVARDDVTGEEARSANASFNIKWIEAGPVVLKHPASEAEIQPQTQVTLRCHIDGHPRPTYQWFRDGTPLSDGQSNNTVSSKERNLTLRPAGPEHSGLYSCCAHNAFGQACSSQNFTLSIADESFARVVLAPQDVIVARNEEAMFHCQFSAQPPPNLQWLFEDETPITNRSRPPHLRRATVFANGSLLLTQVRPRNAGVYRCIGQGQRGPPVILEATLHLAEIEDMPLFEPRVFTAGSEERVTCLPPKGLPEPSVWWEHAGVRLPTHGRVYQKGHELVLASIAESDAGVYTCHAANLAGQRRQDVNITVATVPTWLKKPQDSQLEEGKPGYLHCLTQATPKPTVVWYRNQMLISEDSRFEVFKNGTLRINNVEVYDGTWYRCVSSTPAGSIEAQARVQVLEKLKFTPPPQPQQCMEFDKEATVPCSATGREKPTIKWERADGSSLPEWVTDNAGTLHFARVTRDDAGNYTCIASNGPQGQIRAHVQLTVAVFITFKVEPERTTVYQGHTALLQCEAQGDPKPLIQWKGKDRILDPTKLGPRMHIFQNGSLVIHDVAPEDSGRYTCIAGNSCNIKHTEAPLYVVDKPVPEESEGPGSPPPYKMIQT
assay.info: BLI (ForteBio), antibody on Protein A sensor, monkey PTK7 protein in solution
Below, each entry is listed alongside its reported Kd.

binder: 19C2HZ (anti-human PTK7 humanized antibody) (antibody, human IgG1, kappa, V domains shown, Human IgG1 heavy chain constant region and human Kappa light chain constant region) VH: QVTLKESGPTLVKPTQTLTLTCTFSGFSLSTSGMGINWIRQPPGKALEWLALIWWDDDKYYNPSLKNRLTITKDTSKNQVVLTMTNMDPVDTATYYCARSLITTAPSDYWGQGTLVTVSS VL: DIQMTQSPSSLSASVGDRVTITCKASQNVGTAITWYQQRPGKAPKLLIYSASNRYTGVPSRFSGSGSGTDFTLTISNLQPEDLATYFCLQYSDYPLTFGQGTRLEIKR
units.label: nM
Kd: 0.092

binder: 4E12HZ (anti-human PTK7 humanized antibody) (antibody, human IgG1, kappa, V domains shown, Human IgG1 heavy chain constant region and human Kappa light chain constant region) VH: QVQLVQSGAEVKRPGASVKVSCKTSGYTFTDYAMHWVRQAPGKGLEWIGVISTYYGNVSYNQKFKGRVTMTRDTSTSTVYMELSSLTSEDTAIYYCARGFAYWGQGTLVTVSS VL: DIVITQTELSLPVTPGERASISCRSSKSLQKKDGKTYLNWFLQKPGQSPQLLIYLMSTRASGVSDRFSGSGSGTDFTLKISRVEAEDVGVYYCQQLVEYPFTFGQGTKLEIKR
units.label: nM
Kd: 9.68

binder: 64A10HZ (anti-human PTK7 humanized antibody) (antibody, human IgG1, kappa, V domains shown, Human IgG1 heavy chain constant region and human Kappa light chain constant region; expressed in CHO-S cells) VH: QVQLQESGPGLVKPSETLSLTCTVSGFSLTSYGVYWVRQPPGKGPEWLGVIWTSGNTNYNPSLKSRLTISKDNSKNQVSLKLSSVTAADTAVYYCVKHDGGNYVGVMNYWGQGTLVTVSS VL: EIVMTQSPDFQSVTPKEKVTITCRASQSISDYLHWYQQKPDQSPKLLIKYASQSISGVPSRFSGSGSGSDFTLTINSLEAEDAATYYCQNGHSFPPTFGQGTKLEIKR
units.label: nM
Kd: 26.7

binder: Hu24 (PTK7 control antibody, taken from Hu24 in the Patent CN201580030255) (antibody) chain 1: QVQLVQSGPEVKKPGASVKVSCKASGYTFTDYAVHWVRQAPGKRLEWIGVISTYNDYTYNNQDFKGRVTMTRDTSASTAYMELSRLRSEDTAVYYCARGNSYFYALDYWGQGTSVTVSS chain 2: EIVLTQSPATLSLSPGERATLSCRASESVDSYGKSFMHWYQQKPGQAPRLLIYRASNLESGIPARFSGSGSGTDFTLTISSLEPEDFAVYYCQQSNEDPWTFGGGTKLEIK
units.label: nM
Kd: 11.9
